# maps each entry to its growth inhibition
assay: NCI Yeast Anticancer Drug Screen. Data for the mec2-1 strain (AID 157); conditions: S. cerevisiae mec2-1 strain, at 50.0 µM (retest, dose inferred, filed as 5.0), active compounds read high
This is part of a sample that, as a whole, favours compounds with a hit. Of some 79,000 tested, about 15% had one in any assay.
The answer is to be given in %; state only the numeric part.

{"COMPOUND": "CCC1(O)C(=O)OCc2c1cc1n(c2=O)Cc2cc3cc4c(cc3nc2-1)OCO4 (stereo not drawn)", "PROPERTY_LABEL": "growth inhibition", "RESULT_VALUE": 96}
{"COMPOUND": "CN(C)c1ccc(C(c2c(O)c3ccccc3oc2=O)c2c(O)c3ccccc3oc2=O)cc1", "PROPERTY_LABEL": "growth inhibition", "RESULT_VALUE": 26}
{"COMPOUND": "Cc1nnc2n1-c1ccc(Cl)cc1C(c1ccccc1)=[N+]([O-])C2", "PROPERTY_LABEL": "growth inhibition", "RESULT_VALUE": -9}
{"COMPOUND": "O=C(CCl)Nc1ccc(Cl)cc1", "PROPERTY_LABEL": "growth inhibition", "RESULT_VALUE": 29}
{"COMPOUND": "CC(c1ccccc1)N1O[C@]12CC[C@@]1(C)C(CCCC13OCCO3)C2 (stereo partly drawn)", "PROPERTY_LABEL": "growth inhibition", "RESULT_VALUE": 99}
{"COMPOUND": "COC(=O)C1=C(C(=O)OC)C2(OC(C)=O)c3ccccc3-c3ccccc3C12 (stereo not drawn)", "PROPERTY_LABEL": "growth inhibition", "RESULT_VALUE": 99}

-- ask Check the records and state growth inhibition for `O=P(CCP(=O)(c1ccccc1)c1ccccc1)(c1ccccc1)c1ccccc1.[Cl][Sn]([Cl])([c]1ccccc1)[c]1ccccc1`
-- reply 99

-- ask Check the records and state growth inhibition for CC1Oc2cc3c(-c4c(O)cc(O)c5c(O)c6c(cc45)OC(C)C(C)C6=O)c(O)cc(O)c3c(O)c2C(=O)C1C (stereo not drawn)
-- reply 83

====

test: NCI Yeast Anticancer Drug Screen. Data for the sgs1 mgt1 strain (AID 161);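 note: 0% = growth of cultures given vehicle only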; conditions: S. cerevisiae sgs1 mgt1 strain, at 50.0 µM, active compounds read high
Compounds without any hit were thinned out: in the full panel of roughly 79,000, 15% have a hit.
# maps each entry to its growth inhibition
The answer is to be given in %; state only the numeric part.

These solved cases illustrate the format of a correct answer.
{"MOLECULE": "c1ccc(CN2C3CCCC2CC(c2ccccc2)C3)cc1 (configuration not stated)", "PROPERTY_LABEL": "growth inhibition", "RESULT_VALUE": 80.3}
{"MOLECULE": "O=[N+]([O-])c1ccc(Cl)c(Cl)c1", "PROPERTY_LABEL": "growth inhibition", "RESULT_VALUE": -8.5}
{"MOLECULE": "c1ccc(-c2cccc(-c3ccccc3)c2)cc1", "PROPERTY_LABEL": "growth inhibition", "RESULT_VALUE": 31.3}

-- ask Check the records and state growth inhibition for `O=c1c2cc(Br)ccc2[nH]c(=S)n1-c1ccc(Br)cc1`
-- reply 15.2

-- ask Check the records and state growth inhibition for CC1(C)CCCC(C)(C)N1[P-]C(=O)[P-]N1C(C)(C)CCCC1(C)C.[C-]#[O+].[C-]#[O+].[C-]#[O+].[C-]#[O+].[C-]#[O+].[C-]#[O+].[Fe].[Fe] (configuration not stated)
-- reply -2

-- ask Check the records and state growth inhibition for `COc1ccc([C@H]2N[C@@H]2c2ccccn2)cc1`
-- reply -7.2

-- ask Check the records and state growth inhibition for `O=C1NC(=O)C(=O)C(=O)N1`
-- reply -1.75

-- ask Check the records and state growth inhibition for `CC(=O)O.[RuH].c1ccc([PH+](c2ccccc2)c2ccccc2)cc1.c1ccc([PH+](c2ccccc2)c2ccccc2)cc1.c1ccc([PH+](c2ccccc2)c2ccccc2)cc1`
-- reply 72.5

-- ask Check the records and state growth inhibition for `C[As+](C)(C)c1cccc(N)c1`
-- reply -10.1
